target: RPS6KA6 KD1 (human) (UniProt Q9UK32); test: split-luciferase competition binding; conditions: compound 10.0 µM
Sequence (Q9UK32 whole entry, looked up): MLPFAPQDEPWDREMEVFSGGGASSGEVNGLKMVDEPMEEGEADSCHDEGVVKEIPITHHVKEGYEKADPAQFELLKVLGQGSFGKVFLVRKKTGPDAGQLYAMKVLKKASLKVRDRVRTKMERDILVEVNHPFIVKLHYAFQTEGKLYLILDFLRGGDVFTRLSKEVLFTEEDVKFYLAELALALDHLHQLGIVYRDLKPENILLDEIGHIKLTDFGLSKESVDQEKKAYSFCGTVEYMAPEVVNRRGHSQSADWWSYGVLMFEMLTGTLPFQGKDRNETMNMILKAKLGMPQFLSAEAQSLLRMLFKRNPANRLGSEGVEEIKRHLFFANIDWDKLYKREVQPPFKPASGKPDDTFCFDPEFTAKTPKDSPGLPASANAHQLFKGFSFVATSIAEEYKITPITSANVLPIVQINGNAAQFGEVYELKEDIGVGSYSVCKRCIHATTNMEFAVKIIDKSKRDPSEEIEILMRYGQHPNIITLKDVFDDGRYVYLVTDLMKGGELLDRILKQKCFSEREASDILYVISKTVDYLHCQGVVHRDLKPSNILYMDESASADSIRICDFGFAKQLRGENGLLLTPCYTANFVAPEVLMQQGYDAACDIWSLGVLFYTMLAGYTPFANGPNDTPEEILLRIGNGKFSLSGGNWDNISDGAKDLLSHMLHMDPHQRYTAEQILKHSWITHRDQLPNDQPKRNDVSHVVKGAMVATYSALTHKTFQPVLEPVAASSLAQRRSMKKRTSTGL
assay-readout: inhibition (%)
// units = %; emit number, no label

compound=CS(=O)(=O)CCNCc1nc(-c2ccc3ncnc(Nc4ccc(OCc5cccc(F)c5)c(Cl)c4)c3c2)cs1 assay_system="RPS6KA6 KD1 (human) (UniProt Q9UK32)" unit_of_measurement=% experimental_result=5
compound=Cc1[nH]c(/C=C2\C(=O)Nc3ccc(S(=O)(=O)Cc4c(Cl)cccc4Cl)cc32)c(C)c1C(=O)N1CCC[C@@H]1CN1CCCC1 assay_system="RPS6KA6 KD1 (human) (UniProt Q9UK32)" unit_of_measurement=% experimental_result=25
compound=Oc1ccc(-c2nc(-c3ccc(F)cc3)c(-c3ccncc3)[nH]2)cc1 assay_system="RPS6KA6 KD1 (human) (UniProt Q9UK32)" unit_of_measurement=% experimental_result=0
compound=COc1cc2ncn(-c3cc(OCc4ccccc4C(F)(F)F)c(C(N)=O)s3)c2cc1OC assay_system="RPS6KA6 KD1 (human) (UniProt Q9UK32)" unit_of_measurement=% experimental_result=59
compound=CC(C)N(CCC(=O)c1ccc2ccccc2c1)Cc1ccccc1 assay_system="RPS6KA6 KD1 (human) (UniProt Q9UK32)" unit_of_measurement=% experimental_result=0
compound=O=C1NC(=O)c2cc(Nc3ccc(F)cc3)c(Nc3ccc(F)cc3)cc21 assay_system="RPS6KA6 KD1 (human) (UniProt Q9UK32)" unit_of_measurement=% experimental_result=0
compound=Cn1cc(C2=C(c3cn(CCCSC(=N)N)c4ccccc34)C(=O)NC2=O)c2ccccc21 assay_system="RPS6KA6 KD1 (human) (UniProt Q9UK32)" unit_of_measurement=% experimental_result=80
compound=C=CC(=O)c1ccc2ccccc2c1 assay_system="RPS6KA6 KD1 (human) (UniProt Q9UK32)" unit_of_measurement=% experimental_result=0
compound=CC[C@@H](CO)Nc1nc(NCc2ccccc2)c2ncn(C(C)C)c2n1 assay_system="RPS6KA6 KD1 (human) (UniProt Q9UK32)" unit_of_measurement=% experimental_result=0
compound=COc1nccc(-c2c(-c3ccc(F)cc3)ncn2[C@H]2CC[C@H](O)CC2)n1 assay_system="RPS6KA6 KD1 (human) (UniProt Q9UK32)" unit_of_measurement=% experimental_result=0

Request: # input compound: "Cc1cc(I)ccc1Nc1c(C(=O)NOCC2CC2)cc(F)c(F)c1F" ; wanted: its inhibition
Response: 0

Request: Requested read-out: inhibition. Entry: "O=S(=O)(NCCNC/C=C/c1ccc(Br)cc1)c1cccc2cnccc12"
Response: 5

Request: Sample "Nc1ncnc2[nH]nc(Nc3ccc(F)cc3)c12" — what was its inhibition?
Response: 0

Request: What value of inhibition has been reported for the following compound? CS(=O)c1ccc(-c2nc(-c3ccc(F)cc3)c(-c3ccncc3)[nH]2)cc1 (configuration not stated)
Response: 0

Request: Bench note: what inhibition did "CN1CCC(Nc2ncc3ncnc(Nc4ccc(F)c(Cl)c4)c3n2)CC1" show?
Response: 0

Request: Entry under review: "COc1cc2ncnc(Nc3ccc(Cl)cc3F)c2cc1OC" . Reported inhibition?
Response: 0
